// data source = patent US11319299B2

Molecular target: WDR5 (Homo sapiens (Human), UniProt P61964)
Test: Surface Plasmon Resonance (SPR) assay, KD and residence time
Assay type: binding
Conditions: surface plasmon resonance (SPR); read-out: WDR5 binding affinity (KD)
Method: (i) Surface Plasmon Resonance (SPR) Assay The lifetime of a drug on its target is determined by two rate constants: the association rate constant (kon) and the dissociation rate constant (koff). […] Drug-target residence time is defined as the reciprocal of koff (τ=1/koff), making the residence time a parameter that is easily measured by routine in vitro assay methods.
Overview of reported Kd across a group of molecules:
In your response, the unit should come after the numeric value.

Please review the following examples before continuing.
Molecule | Kd
C[C@@H]1CN(c2cc(F)c(-c3cncc(NC(=O)OCc4ccccc4)c3)cc2NC(=O)c2c[nH]c(=O)cc2C(F)(F)F)C[C@H](C)N1C [Example 563] | 3.32 nM
CC1CN(c2cc(F)c(-c3ccnc(N4CCOCC4)n3)cc2NC(=O)c2ccc(F)cc2C(F)F)CCN1C (stereo in doubt) [Example 655] | 1.06 nM
C[C@@H]1CN(c2cc(F)c(-c3cnc(N4CCOCC4)s3)cc2NC(=O)c2c[nH]c(=O)cc2C(F)(F)F)C[C@H](C)N1C [Example 619] | 0.948 nM

QUERY: Bench note: what Kd did CC1CN(c2ncc(-c3cc(NC(=O)c4ccc(F)cc4C(F)(F)F)c(N4C[C@@H](C)N(C)[C@@H](C)C4)cc3F)cn2)CCO1 (stereo in doubt) [Example 453] show?
RESULT: 0.822 nM

QUERY: Bench note: what Kd did CC1CN(c2cc(F)c(-c3cc(C(N)=O)c(F)cc3F)cc2NC(=O)c2ccc(F)cc2C(F)(F)F)CCN1C (stereo in doubt) [Example 635] show?
RESULT: 66.9 nM

QUERY: Bench note: what Kd did C[C@@H]1CN(c2cc(F)c(-c3cc(C(N)=O)c(F)cc3F)cc2NC(=O)c2ccc(F)cc2C(F)(F)F)C[C@H](C)N1C [Example 634] show?
RESULT: 69.5 nM

QUERY: Bench note: what Kd did C[C@@H]1CN(c2cc(F)c(-c3cc(F)c(C(=O)NCC4CC4)c(F)c3)cc2NC(=O)c2c[nH]c(=O)cc2C(F)(F)F)C[C@H](C)N1C [Example 712] show?
RESULT: 2.23 nM

QUERY: Bench note: what Kd did C[C@@H]1CN(c2cc(F)c(-c3ccnc(N4CCOCC4)n3)cc2NC(=O)c2c[nH]c(=O)cc2C(F)F)C[C@H](C)N1C [Example 692] show?
RESULT: 2.4 nM

QUERY: Bench note: what Kd did COc1cc(C(F)(F)F)c(C(=O)Nc2cc(-c3cnc(N4CCOCC4)nc3)c(F)cc2N2C[C@@H](C)N(C)[C@@H](C)C2)cn1 [Example 506] show?
RESULT: 354 nM

QUERY: Bench note: what Kd did CC1CN(c2cc(F)c(-c3ccc(C(=O)NC(C)(C)CC(C)(C)C)c(F)c3F)cc2NC(=O)c2ccc(F)cc2C(F)(F)F)CCN1C (stereo in doubt) [Example 666] show?
RESULT: 117 nM

QUERY: Bench note: what Kd did CCc1ccc(N2CC=C(c3cc(NC(=O)c4c[nH]c(=O)cc4C(F)(F)F)c(N4C[C@@H](C)N(C)[C@@H](C)C4)cc3F)CC2)nn1 [Example 504] show?
RESULT: 2.44 nM

QUERY: Bench note: what Kd did C[C@@H]1COCCN1c1ncc(-c2cc(NC(=O)c3ccc(F)cc3C(F)(F)F)c(N3CCN(C)[C@@H](C)C3)cc2F)cn1 [Example 737] show?
RESULT: 4.61 nM

QUERY: Bench note: what Kd did C[C@@H]1CN(c2cc(F)c(-c3cnc(N4CCC(C)(O)CC4)nc3)cc2NC(=O)c2cn(C)c(=O)cc2C(F)(F)F)C[C@H](C)N1C [Example 641] show?
RESULT: 1.92 nM

QUERY: Bench note: what Kd did C[C@@H]1CN(c2ncc(-c3cc(NC(=O)c4ccc(F)cc4C(F)(F)F)c(N4CCN(C)[C@H](C)C4)cc3F)cn2)CCO1 (stereo in doubt) [Example 452] show?
RESULT: 0.493 nM

QUERY: Bench note: what Kd did C[C@@H]1CN(c2cc(F)c(C3=CCN(c4ncc(C#N)cn4)CC3)cc2NC(=O)c2c[nH]c(=O)cc2C(F)(F)F)C[C@H](C)N1C [Example 404] show?
RESULT: 1 nM

QUERY: Bench note: what Kd did C[C@@H]1CN(c2cc(F)c(C3=CCN(c4ncc(C#N)s4)CC3)cc2NC(=O)c2c[nH]c(=O)cc2C(F)(F)F)C[C@H](C)N1C [Example 696] show?
RESULT: 1.31 nM

QUERY: Bench note: what Kd did CC1CN(c2cc(F)c(-c3nccc(N4CCOCC4)n3)cc2NC(=O)c2c[nH]c(=O)cc2C(F)(F)F)CCN1C (stereo in doubt) [Example 599] show?
RESULT: 4.18 nM

QUERY: Bench note: what Kd did C[C@@H]1CN(c2cc(F)c(-c3c[nH]c(=O)c(F)c3)cc2NC(=O)c2c[nH]c(=O)cc2C(F)(F)F)C[C@H](C)N1C [Example 562] show?
RESULT: 0.904 nM

QUERY: Bench note: what Kd did C[C@@H]1CN(c2cc(F)c(-c3ccc4scnc4c3)cc2NC(=O)c2c[nH]c(=O)cc2C(F)(F)F)C[C@H](C)N1C [Example 678] show?
RESULT: 3.26 nM

QUERY: Bench note: what Kd did C[C@@H]1CN(c2cc(F)c(C3=CCN(C(=O)OC4(C)COC4)CC3)cc2NC(=O)c2c[nH]c(=O)cc2C(F)(F)F)C[C@H](C)N1C [Example 488] show?
RESULT: 4.87 nM

QUERY: Bench note: what Kd did C[C@@H]1CN(c2cc(F)c(C3=CCCN(c4ncc(CO)cn4)C3)cc2NC(=O)c2c[nH]c(=O)cc2C(F)(F)F)C[C@H](C)N1C [Example 413] show?
RESULT: 0.302 nM
